system: Escherichia coli; test: Antibacterial activity against Escherichia coli after 18 hrs by macrodilution test; type: functional
EXPERIMENTAL READOUT: MIC
In your response, put the unit directly after the numeric value.

CC(=O)O[C@H]1CC[C@@]2(C)C(=C/C(=N\Nc3nc4nc5ccccc5nc4s3)[C@H]3[C@@H]4CC[C@H]([C@H](C)CCCC(C)C)[C@@]4(C)CC[C@@H]32)C1 ... 64 µg/mL
Clc1nc2ccccc2nc1Cl ... 512 µg/mL
CC(C)CCC[C@@H](C)[C@H]1CC[C@H]2[C@@H]3/C(=N/NC(N)=S)C=C4CCCC[C@]4(C)[C@H]3CC[C@]12C ... 256 µg/mL
CC(C)CCC[C@@H](C)[C@H]1CC[C@H]2[C@@H]3/C(=N/Nc4nc5nc6ccccc6nc5s4)C=C4C[C@@H](Cl)CC[C@]4(C)[C@H]3CC[C@]12C ... 32 µg/mL
CC(C)CCC[C@@H](C)[C@H]1CC[C@H]2[C@@H]3CC=C4C[C@@H](O)CC[C@]4(C)[C@H]3CC[C@]12C [CHOLESTEROL] ... 512 µg/mL

Read the next record carefully.
Requested field: MIC. Item: O=C(N[C@H](CO)[C@H](O)c1ccc([N+](=O)[O-])cc1)C(Cl)Cl [CHLORAMPHENICOL]
32 µg/mL
